Field: RA [%] at 100 µM MurD. Provide a value for each of the molecules that follow.
target_of_assay: E. coli MurD (Escherichia coli, UniProt P14900)
Sequence (P14900 whole entry): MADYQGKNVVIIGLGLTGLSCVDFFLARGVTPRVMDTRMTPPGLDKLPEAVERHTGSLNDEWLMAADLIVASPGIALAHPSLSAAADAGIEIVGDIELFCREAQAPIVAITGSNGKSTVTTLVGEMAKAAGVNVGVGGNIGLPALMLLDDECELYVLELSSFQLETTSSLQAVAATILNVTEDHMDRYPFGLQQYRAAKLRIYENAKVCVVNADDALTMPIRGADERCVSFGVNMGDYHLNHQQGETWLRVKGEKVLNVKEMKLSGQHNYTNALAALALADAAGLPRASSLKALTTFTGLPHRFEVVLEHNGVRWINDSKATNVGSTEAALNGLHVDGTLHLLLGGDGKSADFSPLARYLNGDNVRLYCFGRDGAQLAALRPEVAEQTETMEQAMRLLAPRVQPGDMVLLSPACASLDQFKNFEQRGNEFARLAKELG
test_description: biochemical
Give bare numbers.

Past entries and their recorded results:
molecule	measured_result
CN(C)CCOc1ccc(-c2cc(-c3ccc4c(c3)CCC4=NO)c(-c3ccncc3)o2)cc1.Cl	51
CN1CCC(C(=O)Nc2n[nH]c3nnc(-c4ccccc4)cc23)CC1.Cl	76
Nc1nccc(-c2c(-c3ccc(F)cc3)ncn2C2CCNCC2)n1 [SB-220025-R#3]	87
Cc1ccc(O)cc1Nc1ccnc2cc(-c3ccccn3)ccc12 [GW440139B]	73
CCn1c(-c2nonc2N)nc2cncc(C(=O)N3CC[C@H](N)C3)c21	90

Hi! Can you tell me RA [%] at 100 µM MurD for each of these molecules?
1. Nc1nccc(-c2c(-c3ccc(F)cc3)ncn2C2CCNCC2)n1 [SB-220025-A]
2. NC(=O)c1ccc(-c2nc(-c3ccc4c(c3)OCO4)c(-c3ccccn3)[nH]2)cc1
3. CN(C)CCOc1ccc(-c2nc(-c3ccncc3)c(-c3ccc4c(c3)CC/C4=N\O)[nH]2)cc1
4. Cl.Oc1cccc(-c2nc(-c3ccccc3)[nH]c2-c2ccncc2)c1
5. Fc1ccc(-c2nc3n(c2-c2ccncc2)CCS3)cc1

output:
[99, 90, 100, 13, 91]
